Target of assay: wt HIV-1 RT-associated RNase H activity (Human immunodeficiency virus type 1 group M subtype B, UniProt P03366)
Assay text: biochemical
Format: biochemical
Reported metric: IC50

Lookup: Consider the molecule shown here: O=C1c2ccccc2C(=O)c2c1ccc(O)c2O What is its recorded IC50?
Found: > 100 µM

----------
Target of assay: K103N RT RDDP (Human immunodeficiency virus type 1 group M subtype B, UniProt P03366, K702N)
Assay text: biochemical
Reported metric: IC50 (µM)
Could you give me the number in µM? Just the number is fine.

Lookup: Consider the compound shown here: O=C1c2ccccc2C(=O)c2c1ccc(O)c2O What is its recorded IC50?
Found: 68

Just for reference, paper PMC3682423 is where these values come from.
